# Tested on: T-47D
# PROTOCOL_TEXT: Antiproliferative SRB assay (NCI protocol), T-47D
# Type: cell-based, human
# APPLIED_CONDITIONS: CC50 splenocytes / GI50 T-47D
Reported Selectivity index (SI) on tumor cells values follow for various compounds

COMPOUND | Selectivity index (SI) on tumor cells
C=C(C(=O)N(Cc1ccccc1)C(C)(C)C(=O)NC1CCCCC1)C1CCC2(C)CCCC(C)(O)C2C1 (centres unmarked) [Compound 15] | 1.7
C=C(Cn1cc(-c2ccccc2)nn1)[C@@H]1CC[C@@]2(C)CCC[C@@](C)(O)C2C1 (some centres unmarked) [Compound 19] | 3.1
C=C(C(=O)N(Cc1ccccc1)C(C)(C)C(=O)NCc1ccccc1)[C@@H]1CCC2=CC(=O)C[C@H](C)[C@@]2(C)C1 [Compound 7] | 1.7
C#CCCCc1cn(CC(=C)[C@@H]2CC[C@@]3(C)CCC[C@@](C)(O)C3C2)nn1 (some centres unmarked) [Compound 17] | 1.4
C=C(Cn1cc(CCCCCCCCCC)nn1)[C@@H]1CC[C@@]2(C)CCC[C@@](C)(O)C2C1 (some centres unmarked) [Compound 16] | 4.8
C=C(C(=O)N(c1ccccc1)C(C)(C)C(=O)NC1CCCCC1)[C@@H]1CCC2=CC(=O)C[C@H](C)[C@@]2(C)C1 [Compound 8] | 0.7
C=C(C(=O)N(c1ccccc1)C(C)(C)C(=O)NC(C)(C)C)[C@@H]1CCC2=CC(=O)C[C@H](C)[C@@]2(C)C1 [Compound 4] | 0.2
C=C(C(=O)N(Cc1ccccc1)C(C)(C)C(=O)NC(C)(C)C)C1CCC2(C)CCCC(C)(O)C2C1 (centres unmarked) [Compound 11] | 14.5
